Biological target: hERG (Homo sapiens, UniProt Q12809)
Sequence (Q12809 whole entry): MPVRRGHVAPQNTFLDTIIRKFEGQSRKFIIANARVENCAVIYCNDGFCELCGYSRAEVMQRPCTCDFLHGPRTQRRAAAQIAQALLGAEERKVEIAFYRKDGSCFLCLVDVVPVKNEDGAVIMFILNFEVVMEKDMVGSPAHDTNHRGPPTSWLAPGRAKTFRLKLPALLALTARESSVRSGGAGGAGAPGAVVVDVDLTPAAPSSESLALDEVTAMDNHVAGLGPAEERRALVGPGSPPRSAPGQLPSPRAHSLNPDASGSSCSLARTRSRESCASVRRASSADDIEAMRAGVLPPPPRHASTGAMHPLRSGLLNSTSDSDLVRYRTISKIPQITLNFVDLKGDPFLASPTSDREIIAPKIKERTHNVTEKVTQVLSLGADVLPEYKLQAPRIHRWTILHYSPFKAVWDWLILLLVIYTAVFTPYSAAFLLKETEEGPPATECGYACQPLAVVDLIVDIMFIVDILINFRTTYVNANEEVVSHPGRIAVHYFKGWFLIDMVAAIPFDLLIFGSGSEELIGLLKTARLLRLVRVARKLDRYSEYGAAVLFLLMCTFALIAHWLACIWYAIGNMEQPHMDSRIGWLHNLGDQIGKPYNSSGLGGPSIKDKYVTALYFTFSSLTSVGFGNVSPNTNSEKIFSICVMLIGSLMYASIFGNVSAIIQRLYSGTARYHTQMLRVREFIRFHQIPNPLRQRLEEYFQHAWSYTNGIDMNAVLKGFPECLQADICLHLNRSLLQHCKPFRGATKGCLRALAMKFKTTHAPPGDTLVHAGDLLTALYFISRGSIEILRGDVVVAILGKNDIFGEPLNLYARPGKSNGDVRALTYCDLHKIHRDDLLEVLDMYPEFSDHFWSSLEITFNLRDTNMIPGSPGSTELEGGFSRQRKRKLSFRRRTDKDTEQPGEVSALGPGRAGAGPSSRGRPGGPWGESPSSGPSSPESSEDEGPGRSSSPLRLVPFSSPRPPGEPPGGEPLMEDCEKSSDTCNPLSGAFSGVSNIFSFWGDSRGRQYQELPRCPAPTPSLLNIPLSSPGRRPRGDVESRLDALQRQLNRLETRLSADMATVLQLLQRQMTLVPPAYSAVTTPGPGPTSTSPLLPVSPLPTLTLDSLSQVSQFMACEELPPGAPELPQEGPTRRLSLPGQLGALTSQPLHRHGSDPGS
Assay: Whole-cell patch-clamp of IKr hERG tail current: protective effect of lipids against hERG inhibition by Nilotinib
Details: human, herg hek293 cells
Reported Metric: activity at 5 min (%)
Write it as a number; the unit % goes unstated.

Look at this molecule and give its reported activity at 5 min. CCCCCCCCCCCCCC(=O)OC[C@H](COP(=O)([O-])OCC[N+](C)(C)C)OC(=O)CCCCCCCCCCCCC
106

Ref: patent EP3697386B1
